- Protocol text: Permeability test (Papp) across hiPSC-derived enterocyte-like cell monolayer
- Type: in vitro ADME
- Condition: human, D30 of differentiation, M3-2 medium, 37°C 2 h, n = 4; read-out: RPChiPS771 d30 Papp Mean ± SD
Readout label: Papp at 2 h (×10⁻⁶ cm/s)
Write the number in ×10⁻⁶ cm/s without appending the unit.

Illustrative cases are given below, each with its answer.
CC(C)(C)NCC(O)COc1cccc2c1CC(O)C(O)C2 (stereo not drawn) = 8.96
Nc1nc2c(ncn2COCCO)c(=O)[nH]1 = 10
NS(=O)(=O)c1cc2c(cc1Cl)NCNS2(=O)=O [hydrochlorothiazide] = 9.5

-- ask State the recorded Papp at 2 h for this entry: COCCc1ccc(OCC(O)CNC(C)C)cc1 (stereo not drawn)
-- reply 25.1

-- ask Please look up its Papp at 2 h: CC(C)NCC(O)COc1cccc2ccccc12 (stereo not drawn)
-- reply 29.3

-- ask Any idea what its Papp at 2 h is? The compound is O=C(O)Cc1ccccc1Nc1c(Cl)cccc1Cl
-- reply 12

-- ask What Papp at 2 h value was documented for this compound, O=C(O)c1cc(/N=N/c2ccc(S(=O)(=O)Nc3ccccn3)cc2)ccc1O ?
-- reply 2.65
